- Target: HDAC8 (Homo sapiens, UniProt Q9BY41)
- Sequence (Q9BY41 whole entry): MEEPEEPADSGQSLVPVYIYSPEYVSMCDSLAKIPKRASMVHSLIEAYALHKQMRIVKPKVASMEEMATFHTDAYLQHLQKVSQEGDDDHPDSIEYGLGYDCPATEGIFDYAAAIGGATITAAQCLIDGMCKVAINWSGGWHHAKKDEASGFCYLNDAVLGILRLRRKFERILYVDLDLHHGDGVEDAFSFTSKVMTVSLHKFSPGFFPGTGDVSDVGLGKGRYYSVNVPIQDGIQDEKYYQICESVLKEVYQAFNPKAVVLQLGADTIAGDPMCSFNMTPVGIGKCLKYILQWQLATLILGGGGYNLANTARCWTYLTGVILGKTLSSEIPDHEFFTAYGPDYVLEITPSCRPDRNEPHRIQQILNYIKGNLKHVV
pIC50: −log10 of the molar value.
Reported endpoint: pIC50

[A] Cc1nc2ccc(F)cc2n1Cc1ccc(C(=O)NO)cc1 [30a]
[B] Cc1nc2ccccc2n1Cc1ccc(C(=O)NO)cc1F [23d]
Ask: # min-compare on pIC50 between A and B Give the label under which the chosen entry appears.
Reply: A
(A: 6.43, B: 6.75)

###

- Test description: Intravenous and oral plasma pharmacokinetics in male CD1 mice
- Format: in vivo
- Condition context: CD1, mouse, po, 30 mg/kg
Reported endpoint: AUC(0-inf) (ng·h/mL)
Provide the reading as a plain figure in ng·h/mL.

Value of measured AUC(0-inf) for the entry Cc1nc2ccccc2n1Cc1ccc(C(=O)NO)cc1F [23d] : 3100

###

- Target: HDAC6 (Homo sapiens)
- Sequence (Q9UBN7 1-1215): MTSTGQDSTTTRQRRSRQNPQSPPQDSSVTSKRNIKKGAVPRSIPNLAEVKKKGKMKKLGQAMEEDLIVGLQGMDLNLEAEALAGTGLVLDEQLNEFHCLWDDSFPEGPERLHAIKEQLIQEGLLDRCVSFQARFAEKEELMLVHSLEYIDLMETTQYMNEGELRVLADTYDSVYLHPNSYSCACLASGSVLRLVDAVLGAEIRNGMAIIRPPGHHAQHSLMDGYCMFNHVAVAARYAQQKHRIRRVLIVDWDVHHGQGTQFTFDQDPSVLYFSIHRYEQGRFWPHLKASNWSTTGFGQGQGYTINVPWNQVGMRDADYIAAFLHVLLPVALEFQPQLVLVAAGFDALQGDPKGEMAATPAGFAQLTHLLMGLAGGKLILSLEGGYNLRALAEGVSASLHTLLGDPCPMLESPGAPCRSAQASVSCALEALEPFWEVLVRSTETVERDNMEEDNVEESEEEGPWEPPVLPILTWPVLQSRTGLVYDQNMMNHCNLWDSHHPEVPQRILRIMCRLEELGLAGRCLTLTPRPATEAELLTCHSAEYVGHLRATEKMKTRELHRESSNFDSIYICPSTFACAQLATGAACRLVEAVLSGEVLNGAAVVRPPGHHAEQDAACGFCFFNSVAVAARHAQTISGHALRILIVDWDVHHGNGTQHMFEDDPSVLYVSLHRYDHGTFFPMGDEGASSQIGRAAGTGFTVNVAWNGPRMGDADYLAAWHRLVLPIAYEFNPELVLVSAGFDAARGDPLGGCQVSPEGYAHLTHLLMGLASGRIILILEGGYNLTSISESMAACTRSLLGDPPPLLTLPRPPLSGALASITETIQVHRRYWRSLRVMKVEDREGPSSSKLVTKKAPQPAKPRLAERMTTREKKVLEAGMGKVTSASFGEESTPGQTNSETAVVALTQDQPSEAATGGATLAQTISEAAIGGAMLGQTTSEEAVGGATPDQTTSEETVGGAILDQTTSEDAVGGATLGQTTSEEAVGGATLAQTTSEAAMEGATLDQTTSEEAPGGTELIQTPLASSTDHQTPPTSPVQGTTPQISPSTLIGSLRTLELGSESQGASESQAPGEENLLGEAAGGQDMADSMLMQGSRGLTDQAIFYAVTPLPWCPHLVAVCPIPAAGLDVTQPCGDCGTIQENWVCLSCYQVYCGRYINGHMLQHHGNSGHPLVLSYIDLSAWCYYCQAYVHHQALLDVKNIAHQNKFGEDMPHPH
- Test description: HDAC6 enzymatic inhibition assay
- Type: biochemical
- Condition context: IC50 (nM) HDAC6, mean of two experiments ± standard deviation; 10-point enzymatic assay starting from 30 μM, 3-fold serial dilution
Reported endpoint: IC50 (nM)

Example cases with answers are listed next.
> print(dat)
                                   compound  reported.endpoint  measurement.unit  obs.value
1  CC(C)(C)OC(=O)N1CC(=O)N(Cc2ccc(C(=O)NO)cc2)c2ccccc21 [17e]               IC50                nM         34
2  Cc1nc2cc(F)ccc2n1Cc1ccc(C(=O)NO)cc1 [30b]               IC50                nM          6
3     Cc1nc2ccccc2n1Cc1nc(C(=O)NO)cs1 [23b]               IC50                nM       8310
4  O=C(NO)c1ccc(CN2CCN(CC3CC3)c3ccccc32)cc1 [17b]               IC50                nM       39.3

[A] O=C(NO)c1ccc(CN2CCNc3ccccc32)cc1 [17a]
[B] O=C(NO)c1ccc(Cn2c(C(F)(F)F)nc3ccccc32)c(F)c1 [23e]
Ask: # min-compare on IC50 between A and B Give the label under which the chosen entry appears.
Reply: A
(A: 3 nM, B: 16 nM)

###

- Test description: Caco-2 permeability
- Assay type: in vitro ADME
- Condition context: human, Caco-2, pH 7.4
Reported endpoint: Papp B→A (nm/s)
Provide the reading as a plain figure in nm/s.

> print(dat)
                                  compound  reported.endpoint  obs.value
1  Cc1nc2ccccc2n1Cc1ccc(C(=O)NO)cc1F [23d]           Papp B→A        132

Value of measured Papp B→A for the entry CN1CCc2c(c3ccccc3n2Cc2ccc(C(=O)NO)cc2)C1 [tubastatin A, reference compound] : 197

###

- Test description: Aqueous solubility
- Condition context: PBS, pH 7.4, aqueous buffer
Reported endpoint: solubility (µM)
Provide the reading as a plain figure in µM.

> print(dat)
                                  compound  obs.value
1  Cc1nc2ccccc2n1Cc1ccc(C(=O)NO)cc1F [23d]        302

Now turn to the next compound.
Value of measured solubility for the entry CN1CCc2c(c3ccccc3n2Cc2ccc(C(=O)NO)cc2)C1 [tubastatin A, reference compound] : 301

###

- Test description: Intravenous and oral plasma pharmacokinetics in male CD1 mice
- Assay type: in vivo
- Condition context: CD1, mouse, iv, 3 mg/kg
Reported endpoint: AUC(0-inf) (ng·h/mL)
Provide the reading as a plain figure in ng·h/mL.

Value of measured AUC(0-inf) for the entry Cc1nc2ccccc2n1Cc1ccc(C(=O)NO)cc1F [23d] : 1480
